Just for reference, patent US20230295157A1 is where these values come from.

measurementTarget: Factor XIa (Homo sapiens (Human))
Sequence (P03951 388-625): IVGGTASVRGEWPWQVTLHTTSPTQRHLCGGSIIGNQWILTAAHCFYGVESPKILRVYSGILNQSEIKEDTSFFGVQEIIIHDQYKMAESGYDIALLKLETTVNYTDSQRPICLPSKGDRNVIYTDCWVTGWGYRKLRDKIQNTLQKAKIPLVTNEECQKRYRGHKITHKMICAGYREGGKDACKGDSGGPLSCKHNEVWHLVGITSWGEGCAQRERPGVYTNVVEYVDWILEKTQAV
Sequence (P03951 19-387 partner): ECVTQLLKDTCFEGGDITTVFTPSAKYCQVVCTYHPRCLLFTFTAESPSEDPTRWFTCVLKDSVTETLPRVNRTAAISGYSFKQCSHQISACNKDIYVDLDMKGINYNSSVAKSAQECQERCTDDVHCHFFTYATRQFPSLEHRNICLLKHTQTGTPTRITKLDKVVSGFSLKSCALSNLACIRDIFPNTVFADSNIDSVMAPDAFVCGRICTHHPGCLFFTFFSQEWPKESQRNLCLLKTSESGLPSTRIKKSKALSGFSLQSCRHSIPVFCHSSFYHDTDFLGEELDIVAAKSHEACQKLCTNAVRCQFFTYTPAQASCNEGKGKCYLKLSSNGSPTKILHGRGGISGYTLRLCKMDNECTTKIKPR
assayProcedure: Factor XIa inhibition assay (FLINT) utilizing a fluorophore-quencher pair peptide substrate
Format: biochemical
measurementParameters: 30 min preincubation, kinetic reads over 30 min, 5Fam-[…]-K5Tamra substrate 15 μM; read-out: FXIa Kin Inh IC50
pIC50: −log10 of the molar value.
metric: pIC50

[A] C[C@H](Oc1nccc(-c2cnc([C@@H]3CC[C@H]4CC(c5c(-n6cnnn6)ccc(Cl)c5F)=CC(=O)N43)[nH]2)c1F)c1nnco1 (relative stereo) [Example 127]
[B] COC(=O)Nc1ccc(-c2cnc([C@@H]3CC[C@H]4CC(c5c(OC(F)F)ccc(Cl)c5F)=CC(=O)N43)[nH]2)cc1 (relative stereo) [Example 320]
[C] [2H]c1cc(Cl)cc(C2=CC(=O)N3[C@H](CC[C@@H]3c3ncc(-c4ccc(N)nc4F)[nH]3)C2)c1-n1cnnn1 (single isomer, unassigned) [Example 121]
-- ask Returns the items ordered by pIC50, from maximum to minimum. Reply format: the labels, ordered as requested.
-- reply C, A, B
(C: 9.15, A: 7.96, B: 7.63)

====

measurementTarget: human plasma kallikrein (Homo sapiens (Human))
assayProcedure: Kallikrein inhibition assay (FLINT) utilizing a quenched AMC peptide substrate
Format: biochemical
measurementParameters: 30 min preincubation, kinetic reads over 30 min, Z-Gly-Pro-Arg-AMC substrate 50 μM; read-out: Kallikrein Kin Inh IC50
pIC50: −log10 of the molar value.
metric: pIC50

                                   molecule                         measurementtarget  observedvalue
0  C[C@H](Oc1nccc(-c2cnc([C@@H]3CC[C@@H]4CC(c5c(-n6cnnn6)ccc(Cl)c5F)=CC(=O)N43)[nH]2)c1F)c1nnco1 (relative stereo)  human plasma kallikrein (Homo sapiens (Human))           7.89

[P] Nc1nccc(-c2cnc([C@@H]3CC[C@@H]4CC(c5cc(Cl)ccc5-n5cnnn5)=CC(=O)N43)[nH]2)c1F (single isomer, unassigned)
[Q] O=C1C=C(c2c(-n3cnnn3)ccc(Cl)c2F)C[C@@H]2CC[C@@H](c3ncc(-c4ccnc(C(F)(F)F)c4)[nH]3)N12
-- ask // pick larger pIC50 from pair: P vs Q Bench note: the answer is the label of the chosen record.
-- reply P

[A] COC(=O)Nc1ccc(-c2cnc([C@@H]3CCC4CC(c5c(-n6cnnn6)ccc(Cl)c5F)=CC(=O)N43)[nH]2)cc1 (some centres unmarked)
[B] CC(C)(O)COc1nccc(-c2c[nH]c([C@@H]3CC[C@@H]4CC(c5c(-n6cnnn6)ccc(Cl)c5F)=CC(=O)N43)n2)c1F
-- ask Consider A and B . Which of these has its pIC50 at a higher number? Record your answer as the label of the chosen record.
-- reply A
(A: 8.85, B: 8.03)

====

measurementTarget: human plasma kallikrein (Homo sapiens (Human))
assayProcedure: Kallikrein inhibition assay (FLINT) utilizing a quenched AMC peptide substrate
Type: biochemical
measurementParameters: 30 min preincubation, kinetic reads over 30 min, Z-Gly-Pro-Arg-AMC substrate 50 μM; read-out: Kallikrein Kin Inh IC50
metric: IC50 (nM)

[I] CNc1n[nH]c2cc(-c3cnc([C@@H]4CCC5CC(c6c(-n7cnnn7)ccc(Cl)c6F)=CC(=O)N54)[nH]3)ccc12 (stereo partly shown) [Example 258]
[II] CC(F)(F)C(=O)Nc1cnccc1-c1c[nH]c([C@@H]2CCC3CC(c4c(-n5cnnn5)ccc(Cl)c4F)=CC(=O)N32)n1 (stereo partly shown) [Example 246]
[III] [2H]C([2H])(O)c1nccc(-c2nc([C@@H]3CC[C@@H]4CC(c5c(-n6cnnn6)ccc(Cl)c5F)=CC(=O)N43)[nH]c2Br)c1F [Example 184]
[IV] O=C1C=C(c2cc(Cl)ccc2-n2cnnn2)C[C@H]2CC[C@@H](c3ncc(-c4ccnc(NC56CC(C5)C6)c4F)[nH]3)N12 [Example 96]
-- ask Going from lowest to highest recorded IC50, rank the entries listed above. Lab note: final answer is the ordered label list.
-- reply I, IV, II, III

====

measurementTarget: human plasma kallikrein (Homo sapiens (Human))
assayProcedure: Kallikrein inhibition assay (FLINT) utilizing a quenched AMC peptide substrate
Type: biochemical
measurementParameters: 30 min preincubation, kinetic reads over 30 min, Z-Gly-Pro-Arg-AMC substrate 50 μM; read-out: Kallikrein Kin Inh IC50
Some compounds, each annotated with its measured pIC50.
Units for pIC50: none; it is -log10 of a concentration expressed in mol/L.

In the examples that follow, each entry is paired with its recorded pIC50.
In [3]: df
Out[3]:
                                   compound  metric  observedvalue
0  O=C1C=C(c2c(-n3cnnn3)ccc(Cl)c2F)C[C@H]2CC[C@H](c3nc(F)c(-c4ccnc(C5(O)CC5)c4)[nH]3)N12   pIC50           8.85
1  COc1c(-c2cnc(C3CC[C@H]4CC(c5c(-n6cnnn6)ccc(Cl)c5F)=CC(=O)N34)[nH]2)ccnc1N (stereo in doubt)   pIC50           7.56

-- ask Please give the measured pIC50 for this compound: NC(=O)c1ccc(-c2c[nH]c([C@@H]3CC[C@@H]4CC(c5c(-n6cc(C(F)(F)F)nn6)ccc(Cl)c5F)=CC(=O)N43)n2)s1
-- reply 8.01

====

measurementTarget: human plasma kallikrein (Homo sapiens (Human), UniProt P03952)
Sequence (P03952 391-638): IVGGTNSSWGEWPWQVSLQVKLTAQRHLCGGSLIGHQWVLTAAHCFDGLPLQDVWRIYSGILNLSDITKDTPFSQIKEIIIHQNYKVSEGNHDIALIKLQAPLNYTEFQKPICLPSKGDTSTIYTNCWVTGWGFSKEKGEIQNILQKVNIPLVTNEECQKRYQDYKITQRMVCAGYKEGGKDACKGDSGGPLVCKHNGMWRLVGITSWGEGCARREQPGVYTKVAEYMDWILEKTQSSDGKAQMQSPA
Sequence (P03952 20-390 partner): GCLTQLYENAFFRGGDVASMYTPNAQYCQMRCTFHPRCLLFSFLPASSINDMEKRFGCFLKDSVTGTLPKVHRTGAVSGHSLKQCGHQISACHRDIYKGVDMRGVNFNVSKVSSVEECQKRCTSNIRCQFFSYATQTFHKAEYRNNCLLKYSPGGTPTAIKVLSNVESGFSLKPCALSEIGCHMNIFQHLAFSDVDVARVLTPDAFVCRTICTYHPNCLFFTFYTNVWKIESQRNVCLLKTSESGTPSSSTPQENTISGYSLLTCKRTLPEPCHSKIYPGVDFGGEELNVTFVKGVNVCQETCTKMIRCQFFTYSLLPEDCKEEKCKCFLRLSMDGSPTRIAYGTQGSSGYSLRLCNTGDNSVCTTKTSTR
assayProcedure: Kallikrein inhibition assay (FLINT) utilizing a quenched AMC peptide substrate
Type: biochemical
measurementParameters: 30 min preincubation, kinetic reads over 30 min, Z-Gly-Pro-Arg-AMC substrate 50 μM; read-out: Kallikrein Kin Inh IC50
metric: IC50 (nM)

Take a look at these entries with their results.
In [3]: df
Out[3]:
                                   compound  unitslabel  observedvalue
0  NC(=O)c1ccc(-c2nc([C@@H]3CC[C@@H]4CC(c5c(-n6cc(C(F)(F)F)nn6)ccc(Cl)c5F)=CC(=O)N43)[nH]c2Cl)s1          nM            2.5
1  O=C1CCc2cc(-c3cnc([C@@H]4CC[C@@H]5CC(c6cc(Cl)ccc6-n6cc(C(F)(F)F)nn6)=CC(=O)N54)[nH]3)ccc2N1          nM            4.6
2  NC(=O)c1ccc(-c2cnc([C@@H]3CC[C@@H]4CC(c5c(-n6cc(C(F)(F)F)nn6)ccc(Cl)c5F)=CC(=O)N43)[nH]2)cn1 (single isomer, unassigned)          nM           90.9

[A] Nc1nccc(-c2cnc([C@@H]3CC[C@@H]4CC(c5c(-n6cnnn6)ccc(Cl)c5F)=CC(=O)N43)[nH]2)c1F
[B] O=C1C=C(c2c(-n3cnnn3)ccc(Cl)c2F)C[C@H]2CC[C@@H](c3ncc(-c4c[nH]c(C(F)(F)F)n4)[nH]3)N12
[C] O=C1C=C(c2c(-n3cnnn3)ccc(Cl)c2F)C[C@H]2CC[C@@H](c3ncc(-c4ccnc(-c5ncc[nH]5)c4F)[nH]3)N12
[D] O=C1C=C(c2c(-n3cnnn3)ccc(Cl)c2F)CC2CCC(c3ncc(-c4ccnc(-c5ccn[nH]5)c4)[nH]3)N12 (centres unmarked)
[E] C[C@@H]1C[C@@H](c2ncc(-c3ccc(N)nc3F)[nH]2)N2C(=O)C=C(c3c(-n4cnnn4)ccc(Cl)c3F)C[C@H]12 (single isomer, unassigned)
-- ask Task field, ranking: reported IC50, descending order. Sort the labels as requested; that list is your answer.
-- reply B, E, C, A, D
(B: 84.6 nM, E: 14.5 nM, C: 9.3 nM, A: 4.6 nM, D: 2.8 nM)

[I] O=C1C=C(c2c(-n3cnnn3)ccc(Cl)c2F)C[C@H]2CC[C@@H](c3ncc(-c4ccc(CO)nc4Cl)[nH]3)N12
[II] O=C1C=C(c2c(-n3cnnn3)ccc(Cl)c2F)C[C@H]2CC[C@@H](c3ncc(-c4ccnc5[nH]ccc45)[nH]3)N12 (single isomer, unassigned)
[III] NC(=O)c1ccc(-c2cnc([C@@H]3CC[C@@H]4CC(c5c(-n6cnnn6)ccc(Cl)c5F)=CC(=O)N43)[nH]2)s1 (relative stereo)
[IV] N#CC1(c2nccc(-c3cnc([C@@H]4CC[C@@H]5CC(c6c(-n7cnnn7)ccc(Cl)c6F)=CC(=O)N54)[nH]3)c2F)COC1 (single isomer, unassigned)
-- ask Rank ascending by IC50. State the ranking by listing the labels in the requested order.
-- reply III, II, I, IV
(III: 0.7 nM, II: 2.5 nM, I: 21.6 nM, IV: 138 nM)

[A] NC(=O)c1ncc(-c2c[nH]c([C@@H]3CC[C@@H]4CC(c5c(-n6cc(C(F)(F)F)nn6)ccc(Cl)c5F)=CC(=O)N43)n2)s1 (single isomer, unassigned)
[B] COc1n[nH]cc1-c1cnc([C@@H]2CC[C@@H]3CC(c4c(-n5cnnn5)ccc(Cl)c4F)=CC(=O)N32)[nH]1
-- ask So which one has the bigger IC50 here, A or B ? Pick one; state its label.
-- reply A
(A: 20.7 nM, B: 11.4 nM)
